These data points were gathered from PubChem BioAssay (EPA / NIEHS).

test: TOX21_p53_BLA_p5_viability: Viability Assessment in the Tox21 HCT-116 p53 Agonism Beta-lactamase Assay, Phase 5 (AID 2283600)
Inconclusive results are not listed. Calls of active or inactive are those of the source. How the source made its calls: active means hit-call score of the fitted dose curve at least 0.9, where 1 is the maximum; inconclusive means response in the unintended direction; inactive means score below 0.9.
Choose one outcome from this list and give only that: y = active, n = inactive

Observe how each entry below is paired with its result.
compound	category
Cc1cc(F)ccc1-c1cc(N2CC[C@@H](O)[C@H]2CO)ncc1N(C)C(=O)C(C)(C)c1cc(C(F)(F)F)cc(C(F)(F)F)c1	y
Cc1ccc2oc(CN(Cc3ccccc3)C(=O)Nc3c(F)cc(F)cc3F)c(-c3ccc(Cl)cc3)c2c1	n
CCCCOC(=O)CC(CC(=O)OCCCC)(OC(C)=O)C(=O)OCCCC	n
CC(O)CC(C)(C)O (stereo not given)	n
CCCCCCCCCCCCO	n
CCCCCCCCCCCC[N+](C)(C)C	n

input: What did the test return for CCCCCCCCOC(=O)c1cc(O)c(O)c(O)c1 ?
output: y

input: What did the test return for NC(=O)c1nc(-c2cccc(-c3cc(F)ccc3OCC(F)(F)C(F)(F)F)c2)n[nH]1 ?
output: y

* * *

experiment: APR_HepG2_MicrotubuleCSK_24hr: Apredica 24-hour HepG2 Assay for Microtubule CSK Stabilty (AID 2282909); conditions: HepG2 microtubule cytoskeleton imaging, actives raise or lower the signal
Activity calls are given as the source filed them. Rule for the calls: active = hit-call score of the fitted dose curve at least 0.9, where 1 is the maximum; inactive = score below 0.9.
Choose one outcome from this list and give only that: t for active, f for inactive

Observe how each entry below is paired with its result.
compound	category
OC12N=C(c3ccccc3)SC1Cc1cc(Cl)ccc12 (stereo not given)	f
CCCCCc1ccc(N)cc1	f

input: What did the test return for COc1ccc2cc(S(=O)(=O)N[C@H](CC(=O)N[C@H](Cc3ccc(CN4[C@H](C)CCC[C@@H]4C)cc3)C(=O)N(C)C(C)C)c3ccc4c(c3)OCO4)ccc2c1 ?
output: t

input: What did the test return for CCO[Si](CCCNC(N)=O)(OCC)OCC ?
output: f

input: What did the test return for O=c1[nH]sc2ccccc12 ?
output: t

input: What did the test return for CC(=O)N1CCN(c2ccc(OC[C@H]3CO[C@](Cn4ccnc4)(c4ccc(Cl)cc4Cl)O3)cc2)CC1 ?
output: t

* * *

read-out: CYP3A5 (gene 1577); test: LTEA_HepaRG_CYP3A5: Life Technologies and Expression Analysis (LTEA) Assay for CYP3A5 using HepaRG (AID 2283493); details: mRNA level, 48 h; actives raise or lower the signal
Calls of active or inactive are those of the source. Rule for the calls: active = hit-call score of the fitted dose curve at least 0.9, where 1 is the maximum; inactive = score below 0.9.
Choose one outcome from this list and give only that: yes (1) = active, no (0) = inactive

molecule	category
CC[C@H](NC(=O)c1cc(F)ccc1NS(=O)(=O)c1cccc2cccnc12)c1ccccc1	no (0)
CC(O)CC(C)(C)O (configuration not stated)	no (0)
CCOC(=O)O[C@H](C)OC(=O)c1ccc2c(c1)cc(C(=O)NC1CCN(C(C)C)CC1)n2Cc1cc(-c2ccc(Cl)s2)on1	no (0)
CC/C(=C(/CC)c1ccc(O)cc1)c1ccc(O)cc1	yes (1)
O=c1c(-c2ccc(O)cc2)coc2cc(O)cc(O)c12	no (0)

input: What did the test return for CC(C)(C)c1cc(/C=C2\SC(N)=NC2=O)cc(C(C)(C)C)c1O ?
output: yes (1)

input: What did the test return for CCCCCCCCOC(=O)c1cc(O)c(O)c(O)c1 ?
output: no (0)

* * *

test: ATG_TA_CIS: Attagene CIS-FACTORIAL HepG2 Assay for human TA Basal Promoter (AID 2282964); conditions: HepG2 Attagene CIS-factorial TA basal promoter reporter; actives raise or lower the signal
Active and inactive are the calls of the source. How the source made its calls: active means hit-call score of the fitted dose curve at least 0.9, where 1 is the maximum; inactive means score below 0.9.
Choose one outcome from this list and give only that: active, inactive

input: What did the test return for O=C(O)c1ccccc1C(=O)OCc1ccccc1 ?
output: inactive

input: What did the test return for Clc1ccccc1C(c1ccccc1)(c1ccccc1)n1ccnc1 ?
output: active

input: What did the test return for O=C(O)c1ccccc1-n1cc(C(=O)O)c(=O)c2cc(Nc3c(F)cc(F)cc3Cl)c(Cl)cc21 ?
output: inactive

* * *

Test: BSK_3C_VCAM1: BioMAP Diversity Plus: 3C Assay for Vascular cell adhesion molecule 1 (VCAM1) Biomarker Activity (AID 2282999)
Conditions: BioMAP 3C HUVEC, VCAM1 ELISA, cytokine-stimulated; actives raise or lower the signal
Description: BSK_3C is a cell-based, multiplexed-readout assay that uses umbilical vein endothelium, a human vascular primary cell, with measurements taken at 24 hours after chemical dosing in a 96-well plate.BSK_3C_VCAM1 is an assay component measured in the BSK_3C assay. It measures VCAM-1 antibody related to regulation of gene expression using ELISA technology.Data from the assay component BSK_3C_VCAM1 was analyzed into 1 assay endpoint. […]
Calls of active or inactive are those of the source. How the source made its calls: active means hit-call score of the fitted dose curve at least 0.9, where 1 is the maximum; inactive means score below 0.9.
Choose one outcome from this list and give only that: y for active, n for inactive

Observe how each entry below is paired with its result.
molecule	category
CCCCCCCC[Si](OCC)(OCC)OCC	y
O=C(O)c1ccccc1-n1cc(C(=O)O)c(=O)c2cc(Nc3c(F)cc(F)cc3Cl)c(Cl)cc21	n
CCN(Cc1cccc(S(=O)(=O)O)c1)c1ccc(C(=C2C=CC(=[N+](CC)Cc3cccc(S(=O)(=O)O)c3)C=C2)c2ccccc2S(=O)(=O)[O-])cc1	n
Cc1cc(F)ccc1-c1cc(N2CC[C@@H](O)[C@H]2CO)ncc1N(C)C(=O)C(C)(C)c1cc(C(F)(F)F)cc(C(F)(F)F)c1	y
OCCO	n

input: What did the test return for CCCCOC(=O)CC(CC(=O)OCCCC)(OC(C)=O)C(=O)OCCCC ?
output: n

input: What did the test return for Oc1ccccc1 ?
output: n

input: What did the test return for Cc1ccc2oc(CN(Cc3ccccc3)C(=O)Nc3c(F)cc(F)cc3F)c(-c3ccc(Cl)cc3)c2c1 ?
output: n

input: What did the test return for Oc1ccc2ccccc2c1 ?
output: n

input: What did the test return for c1ccc2ccccc2c1 ?
output: n

input: What did the test return for CC[C@H](NC(=O)c1cc(F)ccc1NS(=O)(=O)c1cccc2cccnc12)c1ccccc1 ?
output: n

input: What did the test return for CCN(CC)C(=O)c1cc(S(=O)(=O)Cc2ccccc2)c(N2CCC(c3ccccc3)CC2)cc1N(CC)CCN(C)C ?
output: y

* * *

read-out: Macrophage colony-stimulating factor (MCSF), CSF1 (gene 1435); assay: BSK_hDFCGF_MCSF: BioMAP Diversity Plus: hDFCGF Assay for Macrophage colony-stimulating factor (MCSF) Biomarker Activity (AID 2283060); details: primary human foreskin fibroblasts; actives raise or lower the signal
Calls of active or inactive are those of the source. How the source made its calls: active means hit-call score of the fitted dose curve at least 0.9, where 1 is the maximum; inactive means score below 0.9.
Choose one outcome from this list and give only that: active, inactive

Observe how each entry below is paired with its result.
compound	category
Cc1occc1C(=O)Nc1ccc(C(=O)N2CCC(F)(F)/C(=C\C(=O)N3CCC(N4CCCCC4)CC3)c3ccccc32)cc1	inactive
CCCCCCCCCC(=O)O	inactive
COCC(C)OCC(C)OCC(C)O (configuration not stated)	inactive
CCCOC(=O)c1cc(O)c(O)c(O)c1	inactive

# input for lookup
input: What did the test return for c1ccc(C[n+]2cccc3ccccc32)cc1 ?
output: inactive

* * *

read-out: BCL2L11 (gene 10018); experiment: LTEA_HepaRG_BCL2L11: Life Technologies and Expression Analysis (LTEA) Assay for Bcl-2 (BCL2L11) gene using HepaRG (AID 2283473); conditions: mRNA level, 48 h; actives raise or lower the signal
Activity calls are given as the source filed them. Rule for the calls: active = hit-call score of the fitted dose curve at least 0.9, where 1 is the maximum; inactive = score below 0.9.
Choose one outcome from this list and give only that: active, inactive

Observe how each entry below is paired with its result.
sampleSmiles	category
NC(=O)c1nc(-c2cccc(-c3cc(F)ccc3OCC(F)(F)C(F)(F)F)c2)n[nH]1	active
Cc1ncc(CO)c(CO)c1O	inactive
CCCCCCCCCCCCO	inactive

input: What did the test return for O=C=NCCCCCCN=C=O ?
output: inactive

input: What did the test return for Cc1cc2c(cc1C(F)(F)F)N(C(=O)Nc1ccc(Oc3cccnc3C)nc1)CC2 ?
output: active

input: What did the test return for Oc1ccc2ccccc2c1 ?
output: inactive

input: What did the test return for OCCO ?
output: inactive

input: What did the test return for CCCCCc1ccc(N)cc1 ?
output: inactive

* * *

Read-out: Monocyte Chemoattractant Protein-1 (MCP1), CCL2 (gene 6347)
Test: BSK_3C_MCP1: BioMAP Diversity Plus: 3C Assay for Monocyte Chemoattractant Protein-1 (MCP1) Biomarker Activity (AID 2283017)
Conditions: primary human endothelial cells (HUVEC); actives raise or lower the signal
Procedure: BSK_3C is a cell-based, multiplexed-readout assay that uses umbilical vein endothelium, a human vascular primary cell, with measurements taken at 24 hours after chemical dosing in a 96-well plate.BSK_3C_MCP1 is an assay component measured in the BSK_3C assay. It measures MCP-1 antibody related to regulation of gene expression using ELISA technology.Data from the assay component BSK_3C_MCP1 was analyzed into 1 assay endpoint. […]
Calls of active or inactive are those of the source. The calls were made as follows: active = hit-call score of the fitted dose curve at least 0.9, where 1 is the maximum; inactive = score below 0.9.
Choose one outcome from this list and give only that: T = active, F = inactive

sampleSmiles	category
O=C1O[C@H]([C@@H](O)CO)C(O)=C1O	F

input: What did the test return for CCN(CC)C(=O)c1cc(S(=O)(=O)Cc2ccccc2)c(N2CCC(c3ccccc3)CC2)cc1N(CC)CCN(C)C ?
output: T

input: What did the test return for CCCCCCCCCC(=O)O ?
output: F
